As shown below, each of these binders has a reported koff value.
System under test: T1, biotinylated CD3 epsilon:delta heterodimer protein (Amsbio AMS.CDD-H52WO) (Homo sapiens (Human), UniProt P07766 23-126; P04234 22-105)
T1 construct: also called CD3 heterodimer
Test method notes: BLI (Octet), CD3 on SA sensor, Fab analyte;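 note: fab analyte at several concentrations up to 300 nM, association 100 s then 300 s dissociation in buffer, biosensors blocked with biocytin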

{"columns": ["Binder", "koff, s⁻¹"],
 "data": [
  ["huSP34.37.10 Fab-HF (Fab, V domains shown, also called HC37+LC10) VH: EVQLVESGGGLVQPGGSLRLSCAASGFTFNTYAMNWVRQAPGKGLEWVGRTRSKYNNYATYYAASVKGRFTISRDDSKNSLYLQMNSLKTEDTAMYYCVRHGNFGHSYVSWFAYWGQGTLVTVSS VL: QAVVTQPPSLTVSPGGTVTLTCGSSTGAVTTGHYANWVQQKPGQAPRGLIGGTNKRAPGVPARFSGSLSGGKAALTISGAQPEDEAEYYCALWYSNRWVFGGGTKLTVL", 0.00267],
  ["huSP34.35.6 Fab-HF (Fab, V domains shown, also called HC35+LC6) VH: EVQLVESGGGLVQPGGSLRLSCAASGFTFNDYAMNWVRQAPGKGLEWVGRTRSKYNNYATYYAASVKGRFTISRDDSKNSLYLQMNSLKTEDTAMYYCVRHGNFGHSYVSWFAYWGQGTLVTVSS VL: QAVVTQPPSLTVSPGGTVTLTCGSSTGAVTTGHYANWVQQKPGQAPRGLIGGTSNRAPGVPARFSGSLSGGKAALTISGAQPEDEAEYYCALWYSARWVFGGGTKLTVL", 0.187]
]}
